Target: UniProt:P28571
Sequence (P28571 1-651 isoform P28571-2): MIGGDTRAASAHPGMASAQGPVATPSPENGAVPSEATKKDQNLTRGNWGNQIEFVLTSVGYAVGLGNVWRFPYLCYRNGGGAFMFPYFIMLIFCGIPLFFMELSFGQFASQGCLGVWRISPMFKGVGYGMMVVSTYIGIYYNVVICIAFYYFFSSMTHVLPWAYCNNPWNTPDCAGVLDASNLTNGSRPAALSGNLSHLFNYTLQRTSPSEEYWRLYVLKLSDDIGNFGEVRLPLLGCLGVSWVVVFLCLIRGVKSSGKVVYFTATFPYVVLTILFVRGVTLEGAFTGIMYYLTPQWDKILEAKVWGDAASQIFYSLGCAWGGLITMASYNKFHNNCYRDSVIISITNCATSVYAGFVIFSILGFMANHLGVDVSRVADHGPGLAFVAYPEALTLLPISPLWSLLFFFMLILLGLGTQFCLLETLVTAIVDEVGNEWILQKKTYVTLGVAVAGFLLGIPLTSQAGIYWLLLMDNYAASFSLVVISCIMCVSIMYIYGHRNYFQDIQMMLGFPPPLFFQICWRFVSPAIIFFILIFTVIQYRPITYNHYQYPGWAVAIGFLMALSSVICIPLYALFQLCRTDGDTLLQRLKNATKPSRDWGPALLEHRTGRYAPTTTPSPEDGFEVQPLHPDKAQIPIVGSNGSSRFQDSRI
Experiment: Glycine uptake inhibition assay (mGlyT-1b)
Details: [3H]-glycine uptake, Flp-in-CHO cells transfected with mGlyT-1b cDNA
Criterion: IC50 strictly less than 200 nM. Met: criterion met. Not met: criterion not met.

Request: Take the compound C[C@H](Oc1ccc(S(C)(=O)=O)cc1C(=O)N1CCc2cc(C(F)(F)F)ccc2C1)C(F)(F)F [Example 1.14] and say whether its IC50 is less than 200 nM.
Result: criterion met

Request: Decide: IC50 of CC(C)Oc1ccc(S(C)(=O)=O)cc1C(=O)N1CCc2cc(Cl)ccc2C1 [Example 1.19] strictly below 200 nM?
Result: criterion not met

Request: Strictly below 200 nM in IC50? CS(=O)(=O)c1ccc(-c2ccccc2)c(C(=O)N2CCc3nc(C(F)(F)F)ccc3C2)c1 [Example 1.8]
Result: criterion met

Request: State whether 200 nM exceeds IC50 recorded for COc1ccc2c(c1)CCN(C(=O)c1cc(S(C)(=O)=O)ccc1OC(C)C)C2 [Example 1.40] .
Result: criterion not met

Request: State whether 200 nM exceeds IC50 recorded for CC(C)Oc1ccc(S(C)(=O)=O)cc1C(=O)N1CCc2c(ccc3c4ccccc4n(C)c23)C1 [Example 1.47] .
Result: criterion met

Request: Is 200 nM strictly greater than the compound's reported IC50? compound: CC(C)Oc1ccc(S(C)(=O)=O)cc1C(=O)N1CCc2cc(C#N)ccc2C1 [Example 1.20]
Result: criterion not met

Request: For this compound, is IC50 lower than 200 nM? CC(C)Sc1ccc(S(C)(=O)=O)cc1C(=O)N1CCc2cc(Cl)ccc2C1 [Example 1.57]
Result: criterion met

Request: Does CS(=O)(=O)c1ccc(-c2ccccc2)c(C(=O)N2CCc3cc(C(F)(F)F)ccc3C2)c1 [Example 1.15] have IC50 strictly under 200 nM?
Result: criterion met

Request: I wonder whether CS(=O)(=O)c1ccc(N2CCOCC2)c(C(=O)N2CCc3cc(C(F)(F)F)ccc3C2)c1 [Example 1.13] has IC50 below 200 nM. Can you tell?
Result: criterion not met

Request: For this compound, is IC50 lower than 200 nM? CC(C)Oc1ccc(S(C)(=O)=O)cc1C(=O)N1CCc2cc(C(F)(F)F)ccc2C1 [Example 1.12]
Result: criterion met

Request: # TODO verify IC50 < 200 nM strictly for this compound: CC(C)Oc1ccc(S(C)(=O)=O)cc1C(=O)N1CCc2ccc(Cl)cc2C1 [Example 1.25]
Result: criterion not met

Request: Could you please tell me whether IC50 recorded for CC(C)Oc1ccc(S(C)(=O)=O)cc1C(=O)N1CCc2cccc(Cl)c2C1 [Example 1.30] is less than 200 nM?
Result: criterion not met
